- testedOn: hT2R8 (Homo sapiens (Human))
- Sequence (Q9NYW2 whole entry): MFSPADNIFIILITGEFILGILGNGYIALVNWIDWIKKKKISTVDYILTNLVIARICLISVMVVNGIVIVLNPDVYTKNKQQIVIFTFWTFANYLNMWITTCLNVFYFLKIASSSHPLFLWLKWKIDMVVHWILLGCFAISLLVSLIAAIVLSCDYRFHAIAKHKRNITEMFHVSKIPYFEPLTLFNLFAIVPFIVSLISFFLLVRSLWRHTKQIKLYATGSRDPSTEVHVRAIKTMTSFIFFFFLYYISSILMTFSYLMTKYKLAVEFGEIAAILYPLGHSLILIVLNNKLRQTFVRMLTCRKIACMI
- procedureText: hT2R8 antagonist high-throughput FLIPR assay, stable cell line with G16g44, agonist andrographolide
- Format: cell-based
- conditionSet: unit uM; read-out: IC50 on hT2R08 bitter receptor

{"compound": "COc1ccc(CN2CC(=O)N(c3cnn(Cc4c(C)noc4C)c3)C2=O)cc1 [Example 10-29]", "testedOn": "hT2R8 (Homo sapiens (Human))", "IC50": "0.07 µM"}
{"compound": "Cc1noc(C)c1Cn1cc(N2C(=O)CN(Cc3ccn(C)n3)C2=O)cn1 [Example 10-38]", "testedOn": "hT2R8 (Homo sapiens (Human))", "IC50": "0.4 µM"}
{"compound": "Cc1noc(C)c1Cn1cc(N2C(=O)CN(Cc3ccccc3O)C2=O)cn1 [Example 10-11]", "testedOn": "hT2R8 (Homo sapiens (Human))", "IC50": "0.07 µM"}
{"compound": "Cc1ccccc1CN1CC(=O)N(c2cnn(Cc3c(C)noc3C)c2)C1=O [Example 10-20]", "testedOn": "hT2R8 (Homo sapiens (Human))", "IC50": "0.1 µM"}
{"compound": "COc1ccc(CN2CC(=O)N(c3cnn(Cc4c(C)noc4C)c3)C2=O)cc1OC [Example 10-35]", "testedOn": "hT2R8 (Homo sapiens (Human))", "IC50": "0.06 µM"}
{"compound": "Cc1noc(C)c1Cn1cc(N2C(=O)CN(Cc3ccccc3[S+](C)[O-])C2=O)cn1 (stereo not drawn) [Example 10-17]", "testedOn": "hT2R8 (Homo sapiens (Human))", "IC50": "0.4 µM"}
{"compound": "COc1ccc(CN2CC(=O)N(c3cnn(Cc4c(C)noc4C)c3)C2=O)cc1O [Example 10-13]", "testedOn": "hT2R8 (Homo sapiens (Human))", "IC50": "0.1 µM"}
{"compound": "Cc1noc(C)c1Cn1cc(N2C(=O)CN(Cc3ccc(F)cc3)C2=O)cn1 [Example 10-31]", "testedOn": "hT2R8 (Homo sapiens (Human))", "IC50": "0.05 µM"}
{"compound": "Cc1noc(C)c1Cn1cc(N2C(=O)CN(Cc3cccc(C=O)c3)C2=O)cn1 [Example 10-24]", "testedOn": "hT2R8 (Homo sapiens (Human))", "IC50": "0.2 µM"}

Values were extracted from patent US9247759B2.
